Test: inhibitors of E-selectin induction by TNFa, primary screen, imaging, HUVEC, immunofluorescence, MLSMR starter and 10KST1 sets (AID 487);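 note: 100% = median nuclei count of all wells on the same plate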
Details: HUVEC TNFalpha-induced E-selectin immunofluorescence imaging, at 2 µM; measured here: cell number, toxicity
Answer each item with its documented nuclei count.
Provide the reading as a plain figure in %.

Problem: What nuclei count value was documented for this molecule, "CCOc1ccc(NC(=O)c2nn(C)cc2Br)cc1" ?
Result: 157

Problem: # input molecule: CCOC(=O)c1ccc(N2C(=O)CC(NC3CCN(C(=O)c4ccc(F)cc4)CC3)C2=O)cc1 (stereo not given) ; wanted: its nuclei count
Result: 98.3

Problem: Data request, read-out nuclei count, for CCCCOc1ccc(C(=O)N2CCCC2C(=O)O)cc1 (stereo not given)
Result: 146

Problem: What value of nuclei count has been recorded for this entry: "CC(=O)c1ccccc1Oc1nc(CN2CCOCC2)nc2scc(-c3cccs3)c12"
Result: 109

Problem: Which nuclei count value belongs to "Cc1cc(Cl)ccc1OCCCC(=O)NO" ?
Result: 108

Problem: Looking for the measured nuclei count of "Oc1ccc(Cl)cc1-c1cc(-c2ccccc2)n[nH]1" , can you help?
Result: 80.2

Problem: Which nuclei count value belongs to "N#Cc1cc2ccccc2nc1SCC(=O)Nc1ccccc1N1CCOCC1" ?
Result: 106

Problem: Item CCOC(=O)C1=C(N)n2c(s/c(=C\c3cccnc3)c2=O)=C(C(=O)OC)C1c1cccnc1 (stereo not given) has what recorded nuclei count?
Result: 110

Problem: Field request: nuclei count | item: "CCOC(=O)CSc1nnc(NCC(=O)OC(C)C)c(=O)[nH]1"
Result: 144

Problem: Please give the measured nuclei count for this molecule: "O=C(c1coc(=O)c(Br)c1)N1CCOCC1"
Result: 181

Problem: Need nuclei count, item Cc1ccc2cc(C(c3nnnn3CC3CCCO3)N3CCCC4(CCCCC4)C3)c(=O)[nH]c2c1 (stereo not given)
Result: 112

Problem: Requested field: nuclei count. Item: "Cn1c(=O)n(CC(=O)Nc2ccccc2)c2ccccc21"
Result: 152

Problem: Can you share its nuclei count? I mean this molecule: CCOC(=O)C1=C(C)N=C2SCCC(=O)N2C1c1cc(Br)ccc1OC (stereo not given)
Result: 85

Problem: Request the reported nuclei count associated with "CN(C)CCOC(=O)Cc1ccc(Cl)cc1"
Result: 83.6

Problem: Fill in the blank: the reported nuclei count of "CC(C)C(=O)N1CCN(c2nc(-c3ccccc3)c3c(c2C#N)CC(C)(C)OC3)CC1" is ____.
Result: 163

Problem: Which nuclei count is listed for "Cn1cccc1Cc1nnc(SCC(=O)Nc2ccc(F)cc2F)n1-c1ccc(F)cc1" ?
Result: 99.4

Problem: Consider the molecule "Cc1ccc(CCSCC(=O)O)cn1" and give its measured nuclei count.
Result: 83.6

Problem: Entry under review: "CC(NC(=O)Nc1cccnc1)(C(F)(F)F)C(F)(F)F" . Reported nuclei count?
Result: 184

Problem: What value of nuclei count has been recorded for this entry: "O=C(CSc1nnc(-c2ccc(Br)o2)n1Cc1ccccc1)c1ccccc1F"
Result: 96.4

Problem: Which nuclei count reading was recorded for the molecule "COCCCn1c2nc3ccccc3nc2c2c(=O)n(-c3ccccc3OC)c(C)nc21" ?
Result: 185

Problem: Give its nuclei count value. Item: "CCn1c(SCC(=O)C(C)(C)C)nnc1-c1cnccn1"
Result: 100

Problem: Dear colleague, I am looking for the recorded nuclei count of the following molecule: "CCCCCOc1ccccc1C(=O)NCCCC(=O)O"
Result: 116

Problem: Look up nuclei count for this molecule: COc1ccc(-c2nnc(SCC(=O)Nc3sc4c(c3C#N)CCC4)n2CC2CCCO2)cc1 (stereo not given)
Result: 131

Problem: // returns reported nuclei count for input "Cc1ccccc1-n1c(SCc2c(C)noc2C)nnc1-c1ccncc1"
Result: 115

Problem: nuclei count for Cc1onc(-c2c(Cl)cccc2Cl)c1C(=O)NCC1CCCO1 (stereo not given) ?
Result: 113

Problem: Param item = "O=S(=O)(Nc1ccn(-c2ccccc2)n1)c1ccc(Br)cc1" ; retrieve measured nuclei count.
Result: 119

Problem: Tell me the measured nuclei count of "CN(C)CCCOC(=O)c1ccc(Cl)cc1Cl" , please.
Result: 126

Problem: Fill in the blank: the reported nuclei count of COc1ccc(C2CC(=O)C3=C(C2)Nc2ccccc2N(C(=O)C2CC2)C3c2cccnc2)cc1OC (stereo not given) is ____.
Result: 98.6

Problem: Entry "CCOc1ccc(N=C2C(=O)N(CN3CCOCC3)c3ccccc32)cc1" has what nuclei count?
Result: 156

Problem: State the recorded nuclei count for this entry: "CC(=O)c1c(C)[nH]c(C(=O)Nc2c(C)n(C)n(-c3ccccc3)c2=O)c1C"
Result: 111

Problem: Could you tell me which nuclei count is on file for CCOC(=O)C(C)Sc1nc(-c2cccs2)ccc1C#N (stereo not given) ?
Result: 189

Problem: GET /values?readout=nuclei count&item= "CCO/C(C)=N/n1c2nc3ccccc3nc2c2c(=O)n(Cc3ccccc3Cl)c(C)nc21"
Result: 159

Problem: I have this molecule here, "O=C(Oc1cc2oc(=O)c3c(c2cc1Cl)CCCC3)c1ccco1" , and I need its recorded nuclei count.
Result: 148

Problem: Consider the molecule shown here: "CCC(=O)N1CCN=C1SCc1ccc(Cl)cc1" What is its recorded nuclei count?
Result: 106

Problem: Would you mind telling me what nuclei count value was observed for "Cc1cc2cc(CN(CCCN3CCOCC3)C(=O)NC3CCCCC3)c(=O)[nH]c2cc1C" ?
Result: 105
